Target: CYP3A4 (Homo sapiens, UniProt P08684)
Construct: purchased BD GENTEST 459500
Sequence (P08684 whole entry): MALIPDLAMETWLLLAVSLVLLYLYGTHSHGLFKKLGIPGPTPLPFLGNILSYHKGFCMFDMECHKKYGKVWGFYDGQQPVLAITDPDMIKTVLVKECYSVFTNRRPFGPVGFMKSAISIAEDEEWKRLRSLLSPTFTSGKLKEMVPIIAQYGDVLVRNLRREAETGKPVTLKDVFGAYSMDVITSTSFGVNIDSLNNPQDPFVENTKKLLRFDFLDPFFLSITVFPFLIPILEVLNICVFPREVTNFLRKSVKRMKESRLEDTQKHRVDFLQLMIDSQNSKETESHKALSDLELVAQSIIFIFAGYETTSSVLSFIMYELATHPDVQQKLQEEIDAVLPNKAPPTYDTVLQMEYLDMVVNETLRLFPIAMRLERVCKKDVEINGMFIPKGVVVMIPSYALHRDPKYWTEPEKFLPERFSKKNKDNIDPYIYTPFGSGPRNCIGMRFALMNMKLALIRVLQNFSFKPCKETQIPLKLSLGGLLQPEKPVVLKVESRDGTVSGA
Test: CYP inhibition assay (BD GENTEST kit)
Format: in vitro ADME
Details: human, CYP3A4 enzyme/substrate mixture of BD GENTEST kit, pH 7.4, 10 μM; read-out: CYP inhibition (% at 10 μM) 3A4
propertyLabel: inhibition at 30 min, 10 µM (%)
// units = %; emit number, no label

Here is how some compounds turned out for inhibition at 30 min, 10 µM.
[
  {
    "compound": "CCc1cnc(N2CCC(COc3ccc(C4=CCC(C(=O)N5CCC[C@@H]5CO)CC4)cc3)CC2)nc1 (stereo partly drawn) [Example 118]",
    "assayTarget": "CYP3A4 (Homo sapiens, UniProt P08684)",
    "inhibition at 30 min, 10 µM [%]": 48.2
  },
  {
    "compound": "CCc1cnc(N2CCC(COc3ccc(C4=CCC(C(=O)N5CCC[C@@H]5CO)CC4)cc3)CC2)nc1 (single isomer, unassigned; (+)) [Example 290]",
    "assayTarget": "CYP3A4 (Homo sapiens, UniProt P08684)",
    "inhibition at 30 min, 10 µM [%]": 33.1
  }
]

Proceed to the following item.
Prompt: Would you mind telling me what inhibition at 30 min, 10 µM value was observed for CC(C)c1noc(C2CCN(c3ncnc(Nc4ccc(S(C)(=O)=O)cc4F)c3[N+](=O)[O-])CC2)n1 [Comparative Example 1, reference compound] ?
Response: 47.8

----------
Biological target: G protein-coupled receptor 119 (GPR-119) (Mesocricetus auratus, UniProt A0A1U8CD06)
Construct: hamster-derived β-cells containing G protein-coupled receptor 119 (GPR-119), HIT-T15 cells; host or cells: HIT-T15 (hamster pancreatic β-cells)
Test: cAMP activity in HIT-T15 cells (cAMP dynamic kit, FRET)
Format: cell-based, hamster
Settings: 1 hour at 37° C., six concentrations 0.0032 to 10 μM, read-out: EC50
propertyLabel: pEC50
Please keep in mind that pEC50 is minus log10 of the molar concentration; only the number is needed.

Here is how some molecules turned out for pEC50.
[
  {
    "molecule": "CC(C)c1noc(N2CCC(COc3ccc(C4=CCC(C(=O)N5CCC5)CC4)cn3)CC2)n1 (centres unmarked) [Example 339]",
    "pEC50": 6.92
  },
  {
    "molecule": "CCc1cnc(N2CCC(COc3ccc(C4=CCC(C(=O)N5CCC(CCO)CC5)CC4)cc3F)CC2)nc1 (centres unmarked) [Example 296]",
    "pEC50": 8.17
  },
  {
    "molecule": "CC(C)c1noc(N2CCC(COc3ccc(C4=CCC(C(=O)N5CCCCC5)CC4)cc3F)CC2)n1 (centres unmarked) [Example 332]",
    "pEC50": 8.17
  },
  {
    "molecule": "CCc1cnc(N2CCC(COc3ccc(C4=CCC(C(=O)NCC(F)F)CC4)cc3F)CC2)nc1 (centres unmarked) [Example 314]",
    "pEC50": 7.21
  },
  {
    "molecule": "CC(C)c1noc(N2CCC(COc3ccc(C4=CCC(C(=O)NC5CC5)CC4)cc3F)CC2)n1 (centres unmarked) [Example 363]",
    "pEC50": 6.96
  },
  {
    "molecule": "CC(C)c1noc(N2CCC(COc3ccc(C4=CCC(C(=O)N5CCC(C#N)CC5)CC4)cn3)CC2)n1 (centres unmarked) [Example 338]",
    "pEC50": 7.40
  }
]

Prompt: Would you mind telling me what pEC50 value was observed for CCc1cnc(N2CCC(COc3ccc(C4=CCC(C(=O)N5CCCC5)CC4)cc3N)CC2)nc1 (centres unmarked) [Example 393] ?
Response: 6.89

Prompt: Would you mind telling me what pEC50 value was observed for CCc1cnc(N2CCC(COc3ccc(C4=CCC(C(=O)N5CCC(C(F)(F)F)CC5)CC4)c(F)c3)CC2)nc1 (centres unmarked) [Example 452] ?
Response: 7.74

----------
Quick reference: EC50 of the listed items.
Target: G protein-coupled receptor 119 (GPR-119) (Mesocricetus auratus)
Construct: hamster-derived β-cells containing G protein-coupled receptor 119 (GPR-119), HIT-T15 cells; host or cells: HIT-T15 (hamster pancreatic β-cells)
Sequence (A0A1U8CD06 1-334): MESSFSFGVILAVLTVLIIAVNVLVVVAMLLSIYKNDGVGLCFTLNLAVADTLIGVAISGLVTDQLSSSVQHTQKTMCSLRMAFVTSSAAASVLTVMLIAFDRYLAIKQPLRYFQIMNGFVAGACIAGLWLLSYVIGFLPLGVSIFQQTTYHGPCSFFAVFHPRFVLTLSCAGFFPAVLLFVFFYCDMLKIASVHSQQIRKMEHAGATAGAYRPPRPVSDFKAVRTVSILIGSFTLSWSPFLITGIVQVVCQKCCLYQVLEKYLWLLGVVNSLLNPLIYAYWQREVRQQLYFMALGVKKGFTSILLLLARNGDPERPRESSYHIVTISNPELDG
Assay: cAMP activity in HIT-T15 cells (cAMP dynamic kit, FRET)
Format: cell-based, hamster
Conditions: 1 hour at 37° C., six concentrations 0.0032 to 10 μM, read-out: EC50
Description: To check whether the cyclohexene derivatives according to the present invention activate cyclic adenosine monophosphate (cAMP), experiments were carried out, as follows. The HIT-T15 cells were plated on a 96-well plate at 60,000 cells per well. […] The cyclic adenosine monophosphate (cAMP) activity was measured according to the manufacturer's instruction using a cAMP dynamic kit commercially available from Cis Bio Inc. (Bedford, Mass.). […] Fluorescence was read in Flex Station (Molecular Devices). […]
// units = nM; emit number, no label

[
  {
    "molecule": "CCC(F)(F)C(=O)N1CCC(COc2ccc(C3=CCC(C(=O)N4CCCC4)CC3)cc2F)CC1 (stereo not drawn) [Example 436]",
    "EC50 / nM": 9.8
  }
]

Prompt: Would you mind telling me what EC50 value was observed for CCc1cnc(N2CCC(COc3ccc(C4=CCC(C(=O)N5CCC(F)(F)CC5)CC4)cc3F)CC2)nc1 (stereo not drawn) [Example 457] ?
Response: 9.8

Prompt: Would you mind telling me what EC50 value was observed for CCc1cnc(N2CCC(COc3ccc(C4=CCC(C(=O)N5CCN(CCCO)CC5)CC4)cc3)CC2)nc1 (stereo not drawn) [Example 380] ?
Response: 79

Prompt: Would you mind telling me what EC50 value was observed for CCc1cnc(N2CCC(COc3ccc(C4=CCC(C(=O)N5CCC(F)(F)C5)CC4)c(F)c3)CC2)nc1 (single isomer, unassigned; (-)) [Example 461] ?
Response: 91

Prompt: Would you mind telling me what EC50 value was observed for CCc1cnc(N2CCC(COc3ccc(C4=CCC(C(=O)N5CCOCC5)CC4)cc3C)CC2)nc1 (stereo not drawn) [Example 417] ?
Response: 50

Prompt: Would you mind telling me what EC50 value was observed for CCc1cnc(N2CCC(COc3ccc(C4=CCC(C(=O)N5CCCCC5)CC4)cc3C(F)(F)F)CC2)nc1 (stereo not drawn) [Example 375] ?
Response: 110

Prompt: Would you mind telling me what EC50 value was observed for CCc1cnc(N2CCC(COc3ccc(C4=CCC(C(=O)N5CCC(C#N)CC5)CC4)cc3C(F)(F)F)CC2)nc1 (stereo not drawn) [Example 398] ?
Response: 110

----------
Target: G protein-coupled receptor 119 (GPR-119) (Mesocricetus auratus, UniProt A0A1U8CD06)
Construct: hamster-derived β-cells containing G protein-coupled receptor 119 (GPR-119), HIT-T15 cells; host or cells: HIT-T15 (hamster pancreatic β-cells)
Assay: cAMP activity in HIT-T15 cells (cAMP dynamic kit, FRET)
Format: cell-based, hamster
Details: 1 hour at 37° C., six concentrations 0.0032 to 10 μM, read-out: EC50
Quick reference: pEC50 of the listed items.
Please keep in mind that pEC50 is minus log10 of the molar concentration; only the number is needed.

[
  {
    "compound": "CC(C)OC(=O)N1CCC(COc2ccc(C3=CCC(C(=O)N4CCOCC4)CC3)cc2F)CC1 (stereo not drawn)",
    "pEC50": 7.59
  }
]

Prompt: Would you mind telling me what pEC50 value was observed for CCc1cnc(N2CCC(COc3ccc(C4=CCC(C(=O)N5CCC(F)(F)C5)CC4)cc3F)CC2)nc1 (stereo not drawn) ?
Response: 7.44

Prompt: Would you mind telling me what pEC50 value was observed for CC(C)c1noc(N2CCC(COc3ccc(C4=CCC(C(=O)N5CCN(C6CC6)CC5)CC4)cc3F)CC2)n1 (stereo not drawn) [Example 348] ?
Response: 7.85

Prompt: Would you mind telling me what pEC50 value was observed for CC(C)c1noc(N2CCC(COc3ccc(C4=CCC(C(=O)N5CCN(C)CC5)CC4)cc3F)CC2)n1 (stereo not drawn) ?
Response: 7.38

Prompt: Would you mind telling me what pEC50 value was observed for CC(C)c1noc(N2CCC(COc3ccc(C4=CCC(C(=O)N5CC(O)C5)CC4)cc3F)CC2)n1 (stereo not drawn) ?
Response: 7.28

Prompt: Would you mind telling me what pEC50 value was observed for O=C(Oc1ccccc1)N1CCC(COc2ccc(C3=CCC(C(=O)N4CCOCC4)CC3)cc2F)CC1 (stereo not drawn) ?
Response: 7.96

Prompt: Would you mind telling me what pEC50 value was observed for CC(C)(C)OC(=O)N1CCC(COc2ccc(C3=CCC(C(=O)N4CCC(C#N)CC4)CC3)nc2)CC1 (stereo not drawn) ?
Response: 7.55

Prompt: Would you mind telling me what pEC50 value was observed for CC(C)c1noc(N2CCC(COc3ccc(C4=CCC(C(=O)N5CCCC5)CC4)cc3F)CC2)n1 (stereo not drawn) ?
Response: 7.96

Prompt: Would you mind telling me what pEC50 value was observed for CCc1cnc(N2CCC(COc3ccc(C4=CCC(C(=O)N5CCN(C(=O)C=C(C)C)CC5)CC4)cc3)CC2)nc1 (stereo not drawn) ?
Response: 7.57

Prompt: Would you mind telling me what pEC50 value was observed for CC(C)c1noc(N2CCC(COc3ccc(C4=CCC(C(=O)NC5CCCC5)CC4)cc3F)CC2)n1 (stereo not drawn) ?
Response: 7.42

Prompt: Would you mind telling me what pEC50 value was observed for O=C(C1CC=C(c2ccc(OCC3CCN(C(=O)C4(C(F)(F)F)CC4)CC3)c(F)c2)CC1)N1CCCC1 (stereo not drawn) ?
Response: 7.28

Prompt: Would you mind telling me what pEC50 value was observed for CCc1cnc(N2CCC(COc3ccc(C4=CCC(C(=O)N(CC)CCO)CC4)c(F)c3)CC2)nc1 (stereo not drawn) ?
Response: 7.64

Prompt: Would you mind telling me what pEC50 value was observed for CCc1cnc(N2CCC(COc3ccc(C4=CCC(C(=O)N5CCCC5)CC4)cc3C)CC2)nc1 (stereo not drawn) ?
Response: 7.12

Prompt: Would you mind telling me what pEC50 value was observed for CCc1cnc(N2CCC(COc3ccc(C4=CCC(C(=O)N5CC(F)(F)C(F)(F)C5)CC4)c(F)c3)CC2)nc1 (single isomer, unassigned; (-)) [Example 463] ?
Response: 7.06

Prompt: Would you mind telling me what pEC50 value was observed for CC(C)c1noc(N2CCC(COc3ccc(C4=CCC(C(=O)N5CCOCC5)CC4)c(F)c3)CC2)n1 (stereo not drawn) ?
Response: 7.60

Prompt: Would you mind telling me what pEC50 value was observed for CCc1cnc(N2CCC(COc3ccc(C4=CCC(C(=O)NCCF)CC4)cc3F)CC2)nc1 (stereo not drawn) ?
Response: 7.21

Prompt: Would you mind telling me what pEC50 value was observed for CC(C)c1noc(N2CCC(COc3ccc(C4=CCC(C(=O)NC5CCCCC5)CC4)cc3F)CC2)n1 (stereo not drawn) ?
Response: 7.41

Prompt: Would you mind telling me what pEC50 value was observed for CCc1cnc(N2CCC(COc3ccc(C4=CCC(C(=O)NCCO)CC4)cc3F)CC2)nc1 (single isomer, unassigned; (-)) [Example 441] ?
Response: 7.48

Prompt: Would you mind telling me what pEC50 value was observed for CON=C1CCN(C(=O)C2CC=C(c3ccc(OCC4CCN(c5nc(C(C)C)no5)CC4)cc3)CC2)CC1 (stereo not drawn) ?
Response: 7.85

Prompt: Would you mind telling me what pEC50 value was observed for CCc1cnc(N2CCC(COc3ccc(C4=CCC(C(=O)N5CCC(C#N)CC5)CC4)cc3F)CC2)nc1 (stereo not drawn) ?
Response: 7.55
